Assignment: determine reported growth inhibition by drug plus 177Lu-lilotomab satetraxetan for the given compounds.
Test system: RIVA
Assay: growth inhibition by drug plus 177Lu-lilotomab satetraxetan (1 - RLU/untreated control) (fraction); higher = stronger inhibition
Details: 100 nM; time (day): 4; 177Lu-lilotomab satetraxetan 0.5 ug/ml
Counter-ions that a name gives are not always drawn.
Output: the number by itself.

growth inhibition by drug plus 177Lu-lilotomab satetraxetan for RIVA with input CS(=O)(=O)CCNCc1ccc(-c2ccc3ncnc(Nc4ccc(OCc5cccc(F)c5)c(Cl)c4)c3c2)o1 [Lapatinib Ditosylate (Tykerb)] equals 0.475

Bench note, RIVA: N#Cc1ccc(NC(=O)Nc2ccccc2Br)c2n[nH]nc12 , growth inhibition by drug plus 177Lu-lilotomab satetraxetan reads 0.528

The compound Nc1nc(OCc2cc(Br)cs2)c2[nH]cnc2n1 [Lomeguatrib] , tested on RIVA, showed growth inhibition by drug plus 177Lu-lilotomab satetraxetan of 0.479

The reported RIVA growth inhibition by drug plus 177Lu-lilotomab satetraxetan of COc1cc(Nc2ncc3c(n2)-c2ccc(Cl)cc2C(c2c(F)cccc2OC)=NC3)ccc1C(=O)O [MLN8237 (Alisertib)] is 0.81

# lookup: O=C(NCCCNc1nc(Nc2cccc(NC(=O)N3CCCC3)c2)ncc1I)c1cccs1 on RIVA, growth inhibition by drug plus 177Lu-lilotomab satetraxetan = 0.558

I looked up C#CCN(C)CC1=Cc2ccccc2Oc2ccccc21 and its growth inhibition by drug plus 177Lu-lilotomab satetraxetan for RIVA was 0.617

Summary line: Nc1ncn([C@H]2C[C@H](O)[C@@H](CO)O2)c(=O)n1 [Decitabine] , RIVA, reported growth inhibition by drug plus 177Lu-lilotomab satetraxetan = 0.556

Entry O=C(O)CCc1ccc(NCc2cccc(Oc3ccccc3)c2)cc1 : growth inhibition by drug plus 177Lu-lilotomab satetraxetan on RIVA = 0.527

Item COc1ccc(CCN(C)CCCOc2ccc(S(=O)(=O)c3c(C(C)C)n(C)c4ccccc34)cc2)cc1OC was tested on RIVA; the reported growth inhibition by drug plus 177Lu-lilotomab satetraxetan is 0.536

RIVA growth inhibition by drug plus 177Lu-lilotomab satetraxetan of FC(F)c1nc2ccccc2n1-c1nc(N2CCOCC2)nc(N2CCOCC2)n1 is 0.779

// growth inhibition by drug plus 177Lu-lilotomab satetraxetan (RIVA) for Cc1ccc(Nc2nccc(N(C)c3ccc4c(C)n(C)nc4c3)n2)cc1S(N)(=O)=O [Pazopanib] = 0.47

Param item: Nc1ccc(-c2ccc3ncc4ccc(=O)n(-c5cccc(C(F)(F)F)c5)c4c3c2)cn1 [Torin 2] ; param system: RIVA; output growth inhibition by drug plus 177Lu-lilotomab satetraxetan: 0.874

growth inhibition by drug plus 177Lu-lilotomab satetraxetan value, target or system RIVA, for OCCn1cc(-c2cnc3nnn(Cc4ccc5ncccc5c4)c3n2)cn1 : 0.474

Entry O=C(Nc1ccccc1-c1cn2c(CN3CCNCC3)csc2n1)c1cnc2ccccc2n1 , tested on RIVA, has a reported growth inhibition by drug plus 177Lu-lilotomab satetraxetan of 0.513

Tested on RIVA, the item O=C1[C@H](CC[C@H](O)c2ccc(F)cc2)[C@@H](c2ccc(O)cc2)N1c1ccc(F)cc1 [Ezetimibe (Zetia)] showed growth inhibition by drug plus 177Lu-lilotomab satetraxetan equal to 0.479

Sample C[C@]1(c2nc3c(C(N)=O)cccc3[nH]2)CCCN1 [ABT-888 (Veliparib)] , system: RIVA. Its growth inhibition by drug plus 177Lu-lilotomab satetraxetan is 0.418

Result for COc1cc(Nc2ncc(F)c(Nc3ccc4c(n3)N(COP(=O)(O)O)C(=O)C(C)(C)O4)n2)cc(OC)c1OC , tested on RIVA, growth inhibition by drug plus 177Lu-lilotomab satetraxetan: 0.448

growth inhibition by drug plus 177Lu-lilotomab satetraxetan for RIVA with input CCCCCOC(=O)Nc1nc(=O)n([C@@H]2O[C@H](C)[C@@H](O)[C@H]2O)cc1F [Capecitabine (Xeloda)] equals 0.466

Entry CC(NC(=O)c1ccccc1/N=C/c1c(O)ccc2ccccc12)c1ccccc1 (stereo unspecified) [Sirtinol] under RIVA had growth inhibition by drug plus 177Lu-lilotomab satetraxetan of 0.523

RIVA growth inhibition by drug plus 177Lu-lilotomab satetraxetan of COc1cccc2c1C(=O)c1c(O)c3c(c(O)c1C2=O)C[C@@](O)(C(C)=O)C[C@@H]3O[C@H]1C[C@H](N)[C@H](O)[C@H](C)O1 [Daunorubicin HCl (Daunomycin HCl)] is 0.915

RIVA growth inhibition by drug plus 177Lu-lilotomab satetraxetan of O=C(O)C(Cc1c[nH]c2ccccc12)N1C(=O)c2ccccc2C1=O (stereo unspecified) is 0.394

Record CC(C)C[C@H](NC(=O)[C@H](Cc1ccccc1)NC(=O)c1cnccn1)B(O)O [Bortezomib (Velcade)] ; system RIVA; growth inhibition by drug plus 177Lu-lilotomab satetraxetan = 0.989

Param item: CCC(C)n1ncn(-c2ccc(N3CCN(c4ccc(OCC5COC(Cn6cncn6)(c6ccc(Cl)cc6Cl)O5)cc4)CC3)cc2)c1=O (stereo unspecified) [Itraconazole (Sporanox)] ; param system: RIVA; output growth inhibition by drug plus 177Lu-lilotomab satetraxetan: 0.522

Item: COc1ccc(/C=C\c2cc(OC)c(OC)c(OC)c2)cc1O [Combretastatin A4] | System: RIVA | growth inhibition by drug plus 177Lu-lilotomab satetraxetan: 0.949

Item COc1ccc(C2CC(c3ccccc3)=NN2c2ccc(S(N)(=O)=O)cc2)cc1 (stereo unspecified) ; assay system RIVA; growth inhibition by drug plus 177Lu-lilotomab satetraxetan reported as 0.495

Given the compound C=CCn1c(=O)c2cnc(Nc3ccc(N4CCN(C)CC4)cc3)nc2n1-c1cccc(C(C)(C)O)n1 and test system RIVA, the measured growth inhibition by drug plus 177Lu-lilotomab satetraxetan is 0.133

* * *

Test system: U-2932
Experiment: growth inhibition by drug alone (1 - RLU/untreated control) (fraction); higher = stronger inhibition
Conditions: 1000 nM; time (day): 3; 177Lu-lilotomab satetraxetan 0 ug/ml
Endpoint: growth inhibition by drug alone
// no unit string in output, number only

Hey, U-2932 data for O=C1c2ccccc2-c2nc3nonc3nc21 : growth inhibition by drug alone came out at 0.144

Kindly note: U-2932, CO[C@@H](C(=O)N1Cc2[nH]nc(NC(=O)c3ccc(N4CCN(C)CC4)cc3)c2C1)c1ccccc1 , growth inhibition by drug alone value reported: 0.206

Reported growth inhibition by drug alone (U-2932) for entry C[C@]12CC[C@H](O)CC1=CC[C@@H]1[C@@H]2CC[C@]2(C)C(c3cccnc3)=CC[C@@H]12 is 0.0352

Per the reported U-2932 data, N#Cc1ccc(C(c2ccc(C#N)cc2)n2cncn2)cc1 has growth inhibition by drug alone of -0.0775

* * *

Tested on: RIVA
Experiment: growth inhibition by drug plus 177Lu-lilotomab satetraxetan (1 - RLU/untreated control) (fraction); higher = stronger inhibition
Details: 100 nM; time (day): 4; 177Lu-lilotomab satetraxetan 0.5 ug/ml
Structures can show the parent of a compound that is named as a salt.
I'd be grateful if you could share measured growth inhibition by drug plus 177Lu-lilotomab satetraxetan for these entries.
Please give the numeric answer without any surrounding text.

The recorded growth inhibition by drug plus 177Lu-lilotomab satetraxetan for CC(=O)O[C@]1(C(C)=O)CC[C@H]2[C@@H]3C[C@H](C)C4=CC(=O)CC[C@]4(C)[C@H]3CC[C@@]21C [Medroxyprogesterone acetate] is 0.389

The value of growth inhibition by drug plus 177Lu-lilotomab satetraxetan measured for the compound Nc1nccc(-c2ccc3noc(-c4ccc(Cl)cc4)c3c2)n1 turned out to be 0.536

Consider COc1cc2/c(=N/c3ccc(Br)cc3F)nc[nH]c2cc1OCC1CCN(C)CC1 [Vandetanib (Zactima)] . Its measured growth inhibition by drug plus 177Lu-lilotomab satetraxetan is 0.377

// field: growth inhibition by drug plus 177Lu-lilotomab satetraxetan; key: CC[C@H](Nc1ncnc2[nH]cnc12)c1nc2cccc(F)c2c(=O)n1-c1ccccc1 ; value = 0.541

For CC(C)C[C@H](NC(=O)CNC(=O)c1cc(Cl)ccc1Cl)B1OC(=O)C(CC(=O)O)(CC(=O)O)O1 the compound record lists growth inhibition by drug plus 177Lu-lilotomab satetraxetan as 0.701

Per the records, this compound ( COc1cc2nccc(Oc3ccc(NC(=O)Nc4cc(C)on4)c(Cl)c3)c2cc1OC ) has growth inhibition by drug plus 177Lu-lilotomab satetraxetan equal to 0.535

For this compound ( COC(=O)c1ccc2c(C(=Nc3ccc(N(C)C(=O)CN4CCN(C)CC4)cc3)c3ccccc3)c(O)[nH]c2c1 ), measured growth inhibition by drug plus 177Lu-lilotomab satetraxetan is 0.362

growth inhibition by drug plus 177Lu-lilotomab satetraxetan in this record for O=c1cc(N2CCOCC2)oc2c(-c3cccc4c3sc3ccccc34)cccc12 : 0.499

Quick note, growth inhibition by drug plus 177Lu-lilotomab satetraxetan for CC(C)c1ccc(Cn2ccc3c4c(N)nc(NC5CC5)nc4ccc32)cc1 landed at 0.778

Data point: CNNCc1ccc(C(=O)NC(C)C)cc1 [Procarbazine hydrochloride (Matulane)] ; growth inhibition by drug plus 177Lu-lilotomab satetraxetan = 0.553

Field growth inhibition by drug plus 177Lu-lilotomab satetraxetan (entry Nc1nc(Cl)nc2c1ncn2[C@H]1C[C@H](O)[C@@H](CO)O1 ) reads 0.807

The value of growth inhibition by drug plus 177Lu-lilotomab satetraxetan measured for the compound COc1ncc(-c2ccc3nccc(-c4ccnnc4)c3c2)cc1NS(=O)(=O)c1ccc(F)cc1F turned out to be 0.963

growth inhibition by drug plus 177Lu-lilotomab satetraxetan in this record for CC(C)n1c(/C=C/C(O)CC(O)CC(=O)O)c(-c2ccc(F)cc2)c2ccccc21 (centres undefined) [Fluvastatin sodium (Lescol)] : 0.511

Quick note, growth inhibition by drug plus 177Lu-lilotomab satetraxetan for O=C1NC(=O)/C(=C\c2cccc(C(F)(F)F)c2)S1 landed at 0.456

Quick note, growth inhibition by drug plus 177Lu-lilotomab satetraxetan for CCN(CC)CCCC(C)Nc1nc(C)cc(Nc2ccc3nc(C)cc(N)c3c2)n1 (centres undefined) landed at 0.538

get_value(item= CN1C(=O)C(Cc2c[nH]c3ccccc23)NC1=S (centres undefined) , readout=growth inhibition by drug plus 177Lu-lilotomab satetraxetan) returns 0.476

The compound listed as Cc1ccc(NC(=O)c2ccc(CN3CCN(C)CC3)cc2)cc1Nc1nccc(-c2cccnc2)n1 shows growth inhibition by drug plus 177Lu-lilotomab satetraxetan equal to 0.444

growth inhibition by drug plus 177Lu-lilotomab satetraxetan measured on Cc1[nH]c(/C=C2\C(=O)Nc3ccc(S(=O)(=O)N(C)c4cccc(Cl)c4)cc32)c(C)c1C(=O)N1CCN(C)CC1 = 0.518

// growth inhibition by drug plus 177Lu-lilotomab satetraxetan value for Cc1[nH]c(/C=C2\C(=O)Nc3ccc(S(=O)(=O)Cc4c(Cl)cccc4Cl)cc32)c(C)c1C(=O)N1CCC[C@@H]1CN1CCCC1 : 0.384

Value of growth inhibition by drug plus 177Lu-lilotomab satetraxetan reported for the compound COC(=O)C1=C(C)NC(C)=C(C(=O)OCCCN2CCC(c3ccccc3)(c3ccccc3)CC2)[C@H]1c1cccc([N+](=O)[O-])c1 [S-(+)-Niguldipine hydrochloride] is 0.552

Query Nc1nc(F)nc2c1ncn2[C@@H]1O[C@H](CO)[C@@H](O)[C@@H]1O yields growth inhibition by drug plus 177Lu-lilotomab satetraxetan of 0.553

The measured growth inhibition by drug plus 177Lu-lilotomab satetraxetan associated with CN(C)Cc1ccc(-c2nc3cccc4c3n2CCNC4=O)cc1 reads 0.642

# compound C[N+](C)([O-])CCNc1ccc(NCC[N+](C)(C)[O-])c2c1C(=O)c1c(O)ccc(O)c1C2=O [Banoxantrone dihydrochloride] ; its growth inhibition by drug plus 177Lu-lilotomab satetraxetan = 0.551

Lab book: growth inhibition by drug plus 177Lu-lilotomab satetraxetan of CC[C@]1(O)C[C@H]2CN(CCc3c([nH]c4ccccc34)[C@@](C(=O)OC)(c3cc4c(cc3OC)N(C=O)[C@H]3[C@@](O)(C(=O)OC)[C@H](OC(C)=O)[C@]5(CC)C=CCN6CC[C@]43[C@@H]65)C2)C1 noted as 0.967
